# study-target: A1 adenosine receptors (Rattus norvegicus)
# Construct: rat cerebral cortex membranes; from tissue; host or cells: rat cerebral cortex membranes
# Sequence (P25099 1-326): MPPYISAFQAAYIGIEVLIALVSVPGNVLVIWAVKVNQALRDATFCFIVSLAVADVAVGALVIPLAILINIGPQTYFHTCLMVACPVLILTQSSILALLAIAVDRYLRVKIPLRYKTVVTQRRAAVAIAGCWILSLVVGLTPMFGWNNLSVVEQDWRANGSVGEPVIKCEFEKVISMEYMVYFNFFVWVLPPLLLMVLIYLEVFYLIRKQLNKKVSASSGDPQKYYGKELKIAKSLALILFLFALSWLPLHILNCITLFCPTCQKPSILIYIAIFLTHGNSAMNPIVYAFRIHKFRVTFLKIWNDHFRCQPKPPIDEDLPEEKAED
# test-summary: membrane binding assay at A1 adenosine receptors (Tables 1 and 2)
# protocol-conditions: Table 1; liberated product; read-out: Ki(nM) at A1 After Cleavage
recorded-endpoint: Ki (nM)
Give the number; nM is assumed, so skip it.

Could you share which Ki value was measured for CCCn1c(=O)c2[nH]c(-c3ccc(OCC(=O)NCCNC(=O)CN)cc3)nc2n(CCC)c1=O ?
2.1

Queued: CCCn1c(=O)c2[nH]c(-c3ccc(OCC(=O)NCCNC(=O)c4ccc[n+](C)c4)cc3)nc2n(CCC)c1=O
10

Likewise for CCCn1c(=O)c2[nH]c(-c3ccc(OCC(=O)NCCO)cc3)nc2n(CCC)c1=O ?
12

Also CCCn1c(=O)c2[nH]c(-c3ccc(OCC(=O)NCCNC(=O)[C@@H](N)C(C)C)cc3)nc2n(CCC)c1=O , if possible.
3

###

# study-target: A1 receptor (Rattus norvegicus, UniProt P25099)
# Construct: rat cerebral cortex membranes; from tissue; host or cells: rat cerebral cortex membranes
# test-summary: inhibition of [3H]PIA binding to rat cerebral cortex membranes
# protocol-conditions: [3H]PIA, rat cerebral cortex membranes; means from two experiments; read-out: A1 receptor Ki
recorded-endpoint: pKi
# reply with the number alone; pKi is -log10 of concentration in mol/L

For A1 receptor (Rattus norvegicus, UniProt P25099), provide pKi of CCCn1c(=O)c2[nH]c(-c3ccc(OCC(=O)OCC)cc3)nc2n(CCC)c1=O [Compound 53c] please.
7.89

Can you handle Cn1c(=O)c2[nH]c(-c3ccc(OCC(=O)NCCN)cc3)nc2n(C)c1=O [Compound 56a] next?
7.89

Then this compound: CCn1c(=O)c2[nH]c(-c3ccc(OCC(=O)Nc4ccc(C)cc4)cc3)nc2n(CC)c1=O [Compound 57b]
8.03

Try this compound too: CCn1c(=O)c2[nH]c(-c3ccc(OCC(=O)NCCNC(=O)[C@@H](CCCCNC(=O)OCc4ccccc4)NC(=O)OC(C)(C)C)cc3)nc2n(CC)c1=O [Compound 60b]
6.74

Try this compound next: CCCn1c(=O)c2[nH]c(-c3ccc(OCC(=O)O)cc3)nc2n(CCC)c1=O
7.30

For CCOC(=O)COc1ccc(-c2nc3c([nH]2)c(=O)n(CC)c(=O)n3CC)cc1 [Compound 53b] then?
6.85

// next record CCn1c(=O)c2[nH]c(-c3ccc(OCC(=O)OC(C)C)cc3)nc2n(CC)c1=O [Compound 54b]
7.05

Ok, now CCn1c(=O)c2[nH]c(-c3ccc(OCC(=O)Nc4ccc(CC(=O)NCCN)cc4)cc3)nc2n(CC)c1=O [Compound 59b]
7.60

Okay, and Cc1ccc(NC(=O)COc2ccc(-c3nc4c([nH]3)c(=O)n(C)c(=O)n4C)cc2)cc1 [Compound 57a] ?
7.57

Repeat for the following compound: CCCn1c(=O)c2[nH]c(-c3ccccc3)nc2n(CCC)c1=O [Compound 51c, 1,3-dipropyl-8-phenylxanthine]
7.89

Let us now turn to CCn1c(=O)c2[nH]c(-c3ccc(OCC(=O)NCCN)cc3)nc2n(CC)c1=O [Compound 56b]
7.92

Next: CCn1c(=O)c2[nH]c(-c3ccc(OCC(=O)Nc4ccc(CC(=O)OC)cc4)cc3)nc2n(CC)c1=O [Compound 58b]
7.24

Next entry: Cn1c(=O)c2[nH]c(-c3ccc(OCC(=O)Nc4ccc(CC(=O)NCCN)cc4)cc3)nc2n(C)c1=O [Compound 59a]
7.38

Thanks! And CCNC(=O)COc1ccc(-c2nc3c([nH]2)c(=O)n(CC)c(=O)n3CC)cc1 [Compound 55b] ?
7.24

###

# study-target: A2 receptor (Homo sapiens)
# Construct: human platetlet membranes; from tissue; host or cells: human platelet membranes
# Sequence (P29274 whole entry): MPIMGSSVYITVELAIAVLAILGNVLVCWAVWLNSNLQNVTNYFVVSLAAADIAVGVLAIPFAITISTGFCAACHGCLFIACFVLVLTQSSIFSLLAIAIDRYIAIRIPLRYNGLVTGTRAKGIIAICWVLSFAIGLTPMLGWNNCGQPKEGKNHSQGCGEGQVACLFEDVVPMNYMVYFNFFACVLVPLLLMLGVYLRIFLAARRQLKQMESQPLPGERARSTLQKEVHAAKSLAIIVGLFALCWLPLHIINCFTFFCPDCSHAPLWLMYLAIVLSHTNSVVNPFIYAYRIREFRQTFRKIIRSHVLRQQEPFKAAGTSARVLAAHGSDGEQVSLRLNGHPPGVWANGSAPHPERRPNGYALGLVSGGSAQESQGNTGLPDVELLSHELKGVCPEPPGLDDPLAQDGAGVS
# test-summary: antagonism of NECA-induced stimulation of adenylate cyclase activity in human platelet membranes
# Type: biochemical
# protocol-conditions: antagonism of NECA-stimulated adenylate cyclase, human platelet membranes; means with 95% confidence limits from 3 experiments; read-out: A2 receptor KB
# Description: Measurements of the potencies of the xanthines as antagonists of NECA-induced stimulation of adenylate cyclase activity in human platetlet membranes and as inhibitors of [^3 H]PIA binding to rat cerebral cortex membranes were carried out as reported previously.
Counter-ions that a name gives are not always drawn.
Respond with Condition met for Kb values of 100 nM and above, Condition not met for values below.

Answer whether Kb of CCCn1c(=O)c2[nH]c(-c3ccc(OCC(=O)OCC)cc3)nc2n(CCC)c1=O [Compound 53c] is greater than or equal to 100 nM.
Condition met

Next entry: CCOC(=O)COc1ccc(-c2nc3c([nH]2)c(=O)n(CC)c(=O)n3CC)cc1 [Compound 53b]
Condition met

Next molecule: Cn1c(=O)c2[nH]c(-c3ccccc3)nc2n(C)c1=O [Compound 51a]
Condition met

Same question for Cn1c(=O)c2[nH]c(-c3ccc(OCC(=O)NCCN)cc3)nc2n(C)c1=O [Compound 56a] please.
Condition not met

Ok, now CCn1c(=O)c2[nH]c(-c3ccc(OCC(=O)NCCNC(=O)[C@H](N)CCCCN)cc3)nc2n(CC)c1=O [Compound 61b, Dihydrochloride]
Condition not met

How about this molecule: CCn1c(=O)c2[nH]c(-c3ccc(OCC(=O)NCCNC(=O)[C@@H](CCCCNC(=O)OCc4ccccc4)NC(=O)OC(C)(C)C)cc3)nc2n(CC)c1=O [Compound 60b]
Condition met

Another molecule to look at: Cn1c(=O)c2[nH]c(-c3ccc(OCC(=O)Nc4ccc(CC(=O)NCCN)cc4)cc3)nc2n(C)c1=O [Compound 59a]
Condition not met

Also CCn1c(=O)c2[nH]c(-c3ccccc3)nc2n(CC)c1=O [Compound 51b] , if possible.
Condition met

How about this molecule: CCNC(=O)COc1ccc(-c2nc3c([nH]2)c(=O)n(CC)c(=O)n3CC)cc1 [Compound 55b]
Condition not met

Try the molecule CCn1c(=O)c2[nH]c(-c3ccc(OCC(=O)NCCN)cc3)nc2n(CC)c1=O [Compound 56b]
Condition not met

###

Kindly supply the reported log10 of Ki values for the records listed here.
# study-target: A1 adenosine receptors (Rattus norvegicus)
# Construct: rat cerebral cortex membranes; from tissue; host or cells: rat cerebral cortex membranes
# test-summary: membrane binding assay at A1 adenosine receptors (Tables 1 and 2)
# protocol-conditions: Table 1; prodrug before cleavage; read-out: Ki(nM) at A1 Before Cleavage
Heads up: the numbers are on a log10 scale; they represent Ki in nM.

Look up log10 of Ki for this molecule: CCCn1c(=O)c2[nH]c(-c3ccc(OCC(=O)NCCNC(=O)[C@@H](NC(=O)[C@H](Cc4ccc(OC(C)=O)cc4)NC(C)=O)C(C)C)cc3)nc2n(CCC)c1=O
0.70

Now try CCCCCCCCCCCCCCCCCC(=O)OCCNC(=O)COc1ccc(-c2nc3c([nH]2)c(=O)n(CCC)c(=O)n3CCC)cc1 .
2.32

Could you do the same for CCCn1c(=O)c2[nH]c(-c3ccc(OCC(=O)NCCNC(=O)[C@H](CC(=O)OCc4ccccc4)NC(=O)OC(C)(C)C)cc3)nc2n(CCC)c1=O , please?
2.18

Now try CCCn1c(=O)c2[nH]c(-c3ccc(OCC(=O)NCCNC(=O)CC[C@H](NC(C)=O)C(=O)O)cc3)nc2n(CCC)c1=O .
2.38

Entry CCCCCCCCCCCCCC(=O)OCC(COC(=O)CCCCCCCCCCCCC)OC(=O)COc1ccc(-c2nc3c([nH]2)c(=O)n(CCC)c(=O)n3CCC)cc1 please
2.02

Item: CCCCCC=CCC=CCCCCCCCC(=O)NC(Cc1ccc(OC(=O)CCCCCCCC=CCC=CCCCCC)cc1)C(=O)NCC(=O)NCCNC(=O)COc1ccc(-c2nc3c([nH]2)c(=O)n(CCC)c(=O)n3CCC)cc1 (stereo not drawn)
1.30
